Target: recombinant human 11β-HSD type 1 enzyme (Homo sapiens)
Sequence (P28845 whole entry): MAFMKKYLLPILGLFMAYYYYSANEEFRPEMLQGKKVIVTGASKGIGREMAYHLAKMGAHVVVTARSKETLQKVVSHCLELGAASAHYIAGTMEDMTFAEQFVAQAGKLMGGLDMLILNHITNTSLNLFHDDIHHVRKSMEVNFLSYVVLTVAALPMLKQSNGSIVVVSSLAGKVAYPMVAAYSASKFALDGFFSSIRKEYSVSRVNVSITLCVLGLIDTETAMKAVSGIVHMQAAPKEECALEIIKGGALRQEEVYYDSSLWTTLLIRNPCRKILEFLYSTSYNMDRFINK
Assay: 11β-HSD type 1 enzyme assay (NADPH production by fluorescence)
Details: three hour incubation at room temperature
Listing: IC50 of selected molecules
Record the result as a number with its unit.

Example cases with answers are listed next.
O=C1C(Cc2sc3cc4c(cc3c2Cl)OCO4)CCN1C1CCCCC1 (stereo not shown) :: 162 nM
O=C1C(Cc2cc3cc(-c4ccnc(F)c4)ccc3s2)CCN1C1CCCCC1 (stereo not shown) :: 257 nM
O=C(O)c1ccc(-c2ccc3sc(CC4CCN(C5CCCCC5)C4=O)cc3c2)cc1 (stereo not shown) :: 427 nM
O=C1C(Cc2sc3ccccc3c2Cl)CCCN1C1CCC(O)CC1 (stereo not shown) :: 276 nM
O=C1C(Cc2cc3ccccc3s2)CCN1C1CCCCC1 (stereo not shown) :: 190 nM
O=C1C(Cc2cc3ccccc3o2)CCN1C1CCCCC1 (stereo not shown) :: 682 nM

# next molecule below
Summary for this molecule, COc1ccc2c(Cl)c(CC3CCN(C4CCCCC4)C3=O)sc2c1 (stereo not shown) : IC50 is 508 nM

Source listed as patent US7834194B2.
